System: Saccharomyces cerevisiae
experimentNotes: protein stability index of tFT-peptide fusion (C-terminal peptide) (PSI (0-1 scale)); higher = more stable (slower turnover)
studyConditions: genetic background: das1 deletion; temperature: 30 C
testReadout: protein stability index
One number for each entry.

ALNDIAKASYIY [CTK3 C-terminal 12 aa] ... 0.677
KKKRNKNKKAGK [ETP1 C-terminal 12 aa] ... 0.691
IKCKMPWSSPRQ [YOR238W C-terminal 12 aa] ... 0.705

Provide protein stability index values for the following items, in order.
1. CVAGAHFESLLD [YNL144W-A C-terminal 12 aa]
2. QEKEHKKHTVAR [CAJ1 C-terminal 12 aa]
3. EKGIFAGDINSD [COX12 C-terminal 12 aa]
4. GLKQKSTIVTVD [CDC5 C-terminal 12 aa]
5. FRPDEMNIVTKF [PRM15 C-terminal 12 aa]
6. AKEWDLEDPKSM [TAF9 C-terminal 12 aa]

Data returned:
0.702
0.694
0.701
0.692
0.68
0.702

Field: protein stability index. Fill in for each record below.
1. AQLLAYLMHKSN [LPL1 C-terminal 12 aa]
2. LMETSKDVDSHP [DMA2 C-terminal 12 aa]
3. KKKSKSSKKVKV [ESF1 C-terminal 12 aa]

Data returned:
1. 0.714
2. 0.7
3. 0.707

====

Please respond with reported protein stability index for every item in the list.
Tested on: Saccharomyces cerevisiae
experimentNotes: protein stability index of tFT-peptide fusion (C-terminal peptide) (PSI (0-1 scale)); higher = more stable (slower turnover)
studyConditions: genetic background: wild type; temperature: 37 C
One number for each entry.

VFSVTVVFVSVL ... 0.324
AVLAALVSTLAG ... 0.553
LSLLCFVASVVA ... 0.224
VLCFFWWWCRVC ... 0.413
YHFSLFFPLSLP ... 0.568
LYSLRRNWLRTP ... 0.478
KERNKISQRKLT ... 0.416
SLPVSPLVRLLA ... 0.21
RRRRGGQSPALR ... 0.664
CTESVYIIRFML ... 0.466

Give me protein stability index for each of these sequences, listed below.
1. FAVHHLRYILLV
2. CLILGLFSLIFL
3. GRSVGVTMFKNG
4. KMIVWKESIKRE
5. VRFSAVFVKVGV

Data returned:
[0.129, 0.531, 0.479, 0.693, 0.532]

====

System: Saccharomyces cerevisiae
experimentNotes: protein stability index of tFT-peptide fusion (C-terminal peptide) (PSI (0-1 scale)); higher = more stable (slower turnover)
studyConditions: genetic background: wild type; temperature: 30 C
testReadout: protein stability index
Give bare numbers.

VCCDRWWFAFWE ... 0.724
CVIIDFTLCSVI ... 0.682
CFYVGFLGYFVF ... 0.42
VGHCSEGTFYPG ... 0.65
VWVVGADEDAVR ... 0.698
PSIMLSSLPPPP ... 0.696

Please report protein stability index for every entry that follows.
1. GRQEISVGGRRM
2. YLVFSLCSYRFL
3. GKGTRGTRRGGK
4. LALTIVKFGDLS

Data returned:
[0.701, 0.457, 0.632, 0.789]

====

Consider the following sequences; for each one, report its protein stability index.
Test system: Saccharomyces cerevisiae
experimentNotes: protein stability index of tFT-peptide fusion (C-terminal peptide) (PSI (0-1 scale)); higher = more stable (slower turnover)
studyConditions: genetic background: das1 deletion; temperature: 30 C

Sample answers from the record:
SAYMYTKRRFGF [MNR2 C-terminal 12 aa] ... 0.712
NQVKLNQLLVGN [CSE1 C-terminal 12 aa] ... 0.627
HELSKDFSNLGI [NAM7 C-terminal 12 aa] ... 0.701
DRWLNRKALNKG [BUD21 C-terminal 12 aa] ... 0.695
LLIPRRILTLDL [PDL32 C-terminal 12 aa] ... 0.602

For each entry beneath this line, provide reported protein stability index.
1. NKTICLRNYHWL [YIR017W-A C-terminal 12 aa]
2. YWALGVALTGSK [YDR417C C-terminal 12 aa]
3. GSGDEPDSKRRK [YCR051W C-terminal 12 aa]
4. EKPPKEEPESDI [TIM54 C-terminal 12 aa]
5. VVLSYSMVGSVM [MAY24 C-terminal 12 aa]
6. LFYVMTMTKFLF [PHM6 C-terminal 12 aa]

Data returned:
1. 0.702
2. 0.693
3. 0.693
4. 0.711
5. 0.464
6. 0.52

====

Tested on: Saccharomyces cerevisiae
experimentNotes: protein stability index of tFT-peptide fusion in wild type (PSI (0-1 scale)); higher = more stable (slower turnover)
studyConditions: genetic background: wild type
Tick Condition met if protein stability index is 0.2 or greater. Tick Condition not met if protein stability index is less than 0.2.

Examples from the recorded data:
GLYGCSVGCWFR ... Condition met
LVFYLSCVACIN ... Condition not met
CTSCGYKFRTAN ... Condition met
CFSCGYKFRTNN ... Condition not met

Data request: Decide: is the reported value of protein stability index for `AITLPMCPLLLT` equal to or greater than 0.2?
Data returned: Condition met

Data request: Next sequence up: `CLVSLPMLLFFR`
Data returned: Condition not met

Data request: Also `VRGALGGWRLVG` ?
Data returned: Condition not met

Data request: Further, for `SKILRQKMNHQN` ?
Data returned: Condition not met

Data request: Param item: `VRGAVKGWRLVG`
Data returned: Condition not met

Data request: Could you do the same for `RMTRLDAIYFRI` , please?
Data returned: Condition met

Data request: Moving on to `CKILRQKMNHQN`
Data returned: Condition not met

Data request: Try the sequence `PSLAASFWRMVG`
Data returned: Condition not met

Data request: Try the sequence `FSMRRTFRYWVN`
Data returned: Condition not met

Data request: Can you check `KKHKKGQKQKSN` next?
Data returned: Condition met

Data request: Another: `LVVALSCVACIN`
Data returned: Condition not met

Data request: Would you mind doing `CLVSQPILLFFR` as well?
Data returned: Condition met

Data request: Here is the next sequence: `PSLTASFWRVVG`
Data returned: Condition not met

Data request: One more sequence: `CLVSLPILLFFW`
Data returned: Condition met

Data request: Proceed to `KKHKKGQHQKIN`
Data returned: Condition not met

Data request: Same read-out for `FSRRWTFRYWVN` ?
Data returned: Condition not met

Data request: Another sequence to look at: `VKILRQKMNHQN`
Data returned: Condition not met

Data request: Note, next up: `AITQPMCPLLLR`
Data returned: Condition met

====

I'd be grateful if you could share measured protein stability index for these entries.
System: Saccharomyces cerevisiae
experimentNotes: protein stability index of tFT-peptide fusion (C-terminal peptide) (PSI (0-1 scale)); higher = more stable (slower turnover)
studyConditions: genetic background: doa10 deletion; temperature: 30 C
Give bare numbers.

Field: example entries. Status: answers known.
GGVVGRPWWYVG ... 0.266
IKWRCLFCVCVL ... 0.371
GPTLLVSRIAVI ... 0.137
VILCSCSFVLRP ... 0.362

The following sequences each have a reported value; give each one's protein stability index.
1. YVLLSRVSVFSA
2. WPRSFSIILLSR
3. HLLMLAMVGFQC
4. LPSPPSSPPLRP
5. VLSCIPRLAIAA
6. IGYLGSELRFVS

Data returned:
1: 0.297; 2: 0.361; 3: 0.424; 4: 0.588; 5: 0.235; 6: 0.384

====

System: Saccharomyces cerevisiae
experimentNotes: protein stability index of tFT-peptide fusion (C-terminal peptide) (PSI (0-1 scale)); higher = more stable (slower turnover)
studyConditions: genetic background: das1 deletion; temperature: 30 C
Returns one of YES or NO; YES when protein stability index is >= 0.7.

Examples with answers:
FADTRPFDEIYR [ATP23 C-terminal 12 aa] ... YES
ETNFWTAALEYE [THI20 C-terminal 12 aa] ... YES
SRLFSEEKSSVH [YJL150W C-terminal 12 aa] ... YES
TNGNKSCLYWRV [FMP25 C-terminal 12 aa] ... NO

Data request: Is protein stability index for DYDEEDPYEDPF [IKI1 C-terminal 12 aa] at or above 0.7?
Data returned: YES

====

Test system: Saccharomyces cerevisiae
experimentNotes: protein stability index of tFT-peptide fusion (C-terminal peptide) (PSI (0-1 scale)); higher = more stable (slower turnover)
studyConditions: genetic background: das1 deletion; temperature: 30 C
Task for the reader: assign each of the following sequences its reported protein stability index.
Answers are plain numbers.

Kindly give each listed record's protein stability index.
1. YKLFKFLTRERS [BNA4 C-terminal 12 aa]
2. GDYTVKQPEATK [AIM9 C-terminal 12 aa]
3. LQPLIDLDIDNK [ICS2 C-terminal 12 aa]
4. KILVFDKNLMNR [YLR154W-E C-terminal 12 aa]
5. GKNQWFFSKLRF [RPL27A C-terminal 12 aa]
6. NVDDAYSRVFGI [MPS2 C-terminal 12 aa]

Data returned:
1. 0.708
2. 0.703
3. 0.699
4. 0.699
5. 0.707
6. 0.719
